# test-system: Metabotropic glutamate receptor 1 (Rattus norvegicus, UniProt P23385)
# Sequence (P23385 whole entry): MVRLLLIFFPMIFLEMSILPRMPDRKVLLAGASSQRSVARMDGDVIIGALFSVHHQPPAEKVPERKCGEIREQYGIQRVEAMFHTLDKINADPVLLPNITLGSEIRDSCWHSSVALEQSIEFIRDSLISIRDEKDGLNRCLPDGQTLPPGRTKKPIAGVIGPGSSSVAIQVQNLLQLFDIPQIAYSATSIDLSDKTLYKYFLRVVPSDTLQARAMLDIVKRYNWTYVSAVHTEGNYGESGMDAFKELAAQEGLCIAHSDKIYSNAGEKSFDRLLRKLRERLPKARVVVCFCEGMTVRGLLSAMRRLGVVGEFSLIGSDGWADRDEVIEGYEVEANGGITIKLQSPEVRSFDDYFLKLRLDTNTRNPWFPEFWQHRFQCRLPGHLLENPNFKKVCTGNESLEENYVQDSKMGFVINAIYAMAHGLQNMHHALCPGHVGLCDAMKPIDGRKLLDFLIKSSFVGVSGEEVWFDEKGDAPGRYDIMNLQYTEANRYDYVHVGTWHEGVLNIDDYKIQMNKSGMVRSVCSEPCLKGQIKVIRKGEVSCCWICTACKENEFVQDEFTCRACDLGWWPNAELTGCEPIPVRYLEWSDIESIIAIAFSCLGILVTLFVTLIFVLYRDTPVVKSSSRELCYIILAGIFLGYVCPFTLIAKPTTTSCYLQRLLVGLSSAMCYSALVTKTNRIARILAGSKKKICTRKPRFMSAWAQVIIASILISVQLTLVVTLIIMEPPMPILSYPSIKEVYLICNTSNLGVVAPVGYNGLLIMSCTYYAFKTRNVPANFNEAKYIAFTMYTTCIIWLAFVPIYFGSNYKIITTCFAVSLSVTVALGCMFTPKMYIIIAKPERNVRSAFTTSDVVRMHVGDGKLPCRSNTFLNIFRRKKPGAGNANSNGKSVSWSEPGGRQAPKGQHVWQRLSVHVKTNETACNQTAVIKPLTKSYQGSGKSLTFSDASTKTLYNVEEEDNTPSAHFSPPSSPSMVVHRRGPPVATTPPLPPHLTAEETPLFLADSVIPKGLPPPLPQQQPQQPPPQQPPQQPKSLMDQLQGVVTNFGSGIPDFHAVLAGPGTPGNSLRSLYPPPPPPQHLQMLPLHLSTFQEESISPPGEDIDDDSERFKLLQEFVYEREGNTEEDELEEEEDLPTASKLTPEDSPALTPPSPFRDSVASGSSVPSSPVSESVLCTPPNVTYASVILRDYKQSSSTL
# procedure-summary: Allosteric antagonist activity at mGluR1 in Sprague-Dawley rat cerebellar granule cells assessed as accumulation of [3H]inositol phosphate by liquid scintillation counting
# Format: functional
Catalogue of IC50 values
Form entry: value (µM) — number only.

Inquiry: Item under review: COc1ccc(C(=O)/C=C/c2cc3cc(C)ccc3nc2Cl)cc1 . Reported IC50?
Reply text: 20.5

Inquiry: Item under review: CCCCOc1ccc(-c2nnc(-c3ccc(-c4ccccc4)cc3)s2)cc1 . Reported IC50?
Reply text: 28.4

Inquiry: Item under review: O=c1cc(-c2ccccc2)c2ccc(OCc3ccc(F)cc3)cc2o1 . Reported IC50?
Reply text: 23.9

Inquiry: Item under review: O=C(/C=C/c1ccc(Cl)cc1)c1ccc(Oc2ccccc2)cc1 . Reported IC50?
Reply text: 30

Inquiry: Item under review: Cc1cccc2cc(/C=C/C(=O)c3ccccc3)c(Cl)nc12 . Reported IC50?
Reply text: 8.5

Inquiry: Item under review: Cc1ccc(C(=O)c2ccc(Oc3ccccc3)cc2)cc1C . Reported IC50?
Reply text: 15.3

***
Inquiry: Item under review: COc1ccc(C(=O)/C=C/c2cc3ccc(C)cc3nc2Cl)cc1 . Reported IC50?
Reply text: 39.3

* * *

# Organism: Rattus norvegicus
# procedure-summary: Selectivity ratio of Ki for mGluR5 in rat cortical membrane to Ki for mGluR1 in rat cerebellar membrane
# Format: cell membranes
Ratio Ki vs 20: at or above is met, below is not met.

Inquiry: Can COc1ccc(/C=C/C(=O)C23CC4CC(CC(C4)C2)C3)cc1C be said to have Ratio Ki at or above 20?
Reply text: not met

Inquiry: Can O=C(/C=C/c1cnc2ccccc2c1)C12CC3CC(CC(C3)C1)C2 be said to have Ratio Ki at or above 20?
Reply text: met

Inquiry: Can O=C(C1CC1c1ccc(N2CCOCC2)nc1)C12CC3CC(CC(C3)C1)C2 (stereo not drawn) be said to have Ratio Ki at or above 20?
Reply text: met

Inquiry: Can O=C(/C=C/c1ccc2c(c1)OCCO2)C12CC3CC(CC(C3)C1)C2 be said to have Ratio Ki at or above 20?
Reply text: not met

Inquiry: Can O=C(C1CC1c1cnc2ccccc2c1)C12CC3CC(CC(C3)C1)C2 (stereo not drawn) be said to have Ratio Ki at or above 20?
Reply text: met

Inquiry: Can COc1ccc(C2CC2C(=O)C23CC4CC(CC(C4)C2)C3)cn1 (stereo not drawn) be said to have Ratio Ki at or above 20?
Reply text: met

Inquiry: Can O=C(C1CC1c1cccnc1)C12CC3CC(CC(C3)C1)C2 (stereo not drawn) be said to have Ratio Ki at or above 20?
Reply text: not met

Here's the next entry for you.
Inquiry: Can CC(C)(C)C(=O)/C=C/c1cnc2ccccc2c1 be said to have Ratio Ki at or above 20?
Reply text: not met

* * *

# test-system: Metabotropic glutamate receptor 1 (Rattus norvegicus)
Catalogue of Ki values

Recorded Ki, per entry:
Inquiry: Find Ki (Metabotropic glutamate receptor 1 (Rattus norvegicus)) for the entry O=C(c1ccc(Cl)cc1)c1ccc2c(c1)CCCCO2
Reply text: > 40 µM

Inquiry: Find Ki (Metabotropic glutamate receptor 1 (Rattus norvegicus)) for the entry O=C(C1CC1c1cnc2ccccc2c1)C12CC3CC(CC(C3)C1)C2 (centres undefined)
Reply text: 0.137 µM

Inquiry: Find Ki (Metabotropic glutamate receptor 1 (Rattus norvegicus)) for the entry O=c1cc(-c2ccccc2)c2ccc(OCc3ccc(F)cc3)cc2o1
Reply text: > 40 µM

***
Inquiry: Find Ki (Metabotropic glutamate receptor 1 (Rattus norvegicus)) for the entry Cc1ccc2nc(Cl)c(/C=C/C(=O)c3ccccc3)cc2c1
Reply text: 9.18 µM

Inquiry: Find Ki (Metabotropic glutamate receptor 1 (Rattus norvegicus)) for the entry COc1ccc(C(=O)/C=C/c2ccc(OC3CSC3)cc2)cc1
Reply text: > 40 µM

Inquiry: Find Ki (Metabotropic glutamate receptor 1 (Rattus norvegicus)) for the entry O=c1cc(-c2ccccc2)c2cc(Cl)c(OCc3ccc(F)cc3)cc2o1
Reply text: > 40 µM

Inquiry: Find Ki (Metabotropic glutamate receptor 1 (Rattus norvegicus)) for the entry CCOc1ccc(C(=O)/C=C/c2ccc(OCc3ccc(Cl)cc3Cl)cc2)cc1
Reply text: > 40 µM

Inquiry: Find Ki (Metabotropic glutamate receptor 1 (Rattus norvegicus)) for the entry CCn1c2ccccc2c2cc(/C=N/c3ccc(C)c(F)c3)ccc21
Reply text: > 40 µM

Inquiry: Find Ki (Metabotropic glutamate receptor 1 (Rattus norvegicus)) for the entry COc1ccc(C(=O)/C=C/c2cc3ccc(C)cc3nc2Cl)cc1
Reply text: > 40 µM

Inquiry: Find Ki (Metabotropic glutamate receptor 1 (Rattus norvegicus)) for the entry CCCCCc1ccc(-c2ccc(OC(=O)C3CCC(CC)CC3)cc2)nc1 (centres undefined)
Reply text: > 40 µM

Inquiry: Find Ki (Metabotropic glutamate receptor 1 (Rattus norvegicus)) for the entry COc1ccc(-c2cc(C)nc(-c3ccc(OC)c(Br)c3)c2)cc1Br
Reply text: > 40 µM

Inquiry: Find Ki (Metabotropic glutamate receptor 1 (Rattus norvegicus)) for the entry COc1ccc(C(=O)/C=C/c2cc3cc(C)ccc3nc2Cl)cc1
Reply text: > 40 µM

Inquiry: Find Ki (Metabotropic glutamate receptor 1 (Rattus norvegicus)) for the entry Cc1ccc2nc(Cl)c(/C=C/C(=O)c3cccs3)cc2c1
Reply text: 9.93 µM

Inquiry: Find Ki (Metabotropic glutamate receptor 1 (Rattus norvegicus)) for the entry COc1ccc(/C=C/C(=O)C23CC4CC(CC(C4)C2)C3)cc1C
Reply text: 0.294 µM

Inquiry: Find Ki (Metabotropic glutamate receptor 1 (Rattus norvegicus)) for the entry CC(=O)c1ccc(OC(=O)c2ccc(-c3ccccc3)cc2)cc1
Reply text: > 40 µM

Inquiry: Find Ki (Metabotropic glutamate receptor 1 (Rattus norvegicus)) for the entry CCCCC1CCC(C(=O)Oc2ccc(C(C)=O)cc2)CC1 (centres undefined)
Reply text: > 40 µM

Inquiry: Find Ki (Metabotropic glutamate receptor 1 (Rattus norvegicus)) for the entry O=C(/C=C/c1cnc2ccccc2c1)C12CC3CC(CC(C3)C1)C2
Reply text: 0.021 µM

Inquiry: Find Ki (Metabotropic glutamate receptor 1 (Rattus norvegicus)) for the entry Cc1cccc2cc(/C=C/C(=O)c3ccccc3)c(Cl)nc12
Reply text: > 40 µM

Inquiry: Find Ki (Metabotropic glutamate receptor 1 (Rattus norvegicus)) for the entry O=C(/C=C/c1ccc2c(c1)OCCO2)C12CC3CC(CC(C3)C1)C2
Reply text: 0.641 µM

* * *

# test-system: Metabotropic glutamate receptor 5 (Rattus norvegicus)
# Sequence (P31424 whole entry): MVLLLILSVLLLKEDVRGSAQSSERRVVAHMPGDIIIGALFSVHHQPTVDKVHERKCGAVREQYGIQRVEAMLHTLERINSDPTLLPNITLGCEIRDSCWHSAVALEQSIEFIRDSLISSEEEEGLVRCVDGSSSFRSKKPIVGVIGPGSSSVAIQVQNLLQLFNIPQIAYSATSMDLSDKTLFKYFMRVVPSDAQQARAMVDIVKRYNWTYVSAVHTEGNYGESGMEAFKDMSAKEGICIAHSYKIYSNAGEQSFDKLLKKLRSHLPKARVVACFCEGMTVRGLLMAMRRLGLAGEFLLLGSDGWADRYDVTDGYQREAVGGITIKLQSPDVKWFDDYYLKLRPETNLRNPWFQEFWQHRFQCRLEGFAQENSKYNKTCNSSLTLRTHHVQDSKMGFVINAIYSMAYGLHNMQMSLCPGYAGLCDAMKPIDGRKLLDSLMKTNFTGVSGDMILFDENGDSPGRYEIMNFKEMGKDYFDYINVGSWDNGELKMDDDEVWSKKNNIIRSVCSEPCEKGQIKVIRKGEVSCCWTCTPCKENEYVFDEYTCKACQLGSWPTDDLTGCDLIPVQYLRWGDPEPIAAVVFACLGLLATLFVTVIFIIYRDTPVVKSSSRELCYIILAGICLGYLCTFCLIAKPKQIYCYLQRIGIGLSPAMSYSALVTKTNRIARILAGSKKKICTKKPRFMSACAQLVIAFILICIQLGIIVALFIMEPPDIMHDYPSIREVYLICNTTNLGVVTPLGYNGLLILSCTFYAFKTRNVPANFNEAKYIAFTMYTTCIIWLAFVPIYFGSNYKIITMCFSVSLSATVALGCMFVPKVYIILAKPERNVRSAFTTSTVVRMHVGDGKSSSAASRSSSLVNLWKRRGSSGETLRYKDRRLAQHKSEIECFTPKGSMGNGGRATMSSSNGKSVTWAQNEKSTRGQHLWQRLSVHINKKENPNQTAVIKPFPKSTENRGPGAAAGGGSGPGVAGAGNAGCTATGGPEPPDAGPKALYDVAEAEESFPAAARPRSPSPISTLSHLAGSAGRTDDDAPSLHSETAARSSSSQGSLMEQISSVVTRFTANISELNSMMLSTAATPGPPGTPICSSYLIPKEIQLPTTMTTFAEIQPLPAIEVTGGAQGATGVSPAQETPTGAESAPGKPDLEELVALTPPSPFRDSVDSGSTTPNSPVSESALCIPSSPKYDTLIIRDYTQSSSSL
Catalogue of Ki values

Recorded Ki, per entry:
Inquiry: Find Ki (Metabotropic glutamate receptor 5 (Rattus norvegicus)) for the entry COc1ccc(C(=O)/C=C/c2cc3ccc(C)cc3nc2Cl)cc1
Reply text: > 100 µM

Inquiry: Find Ki (Metabotropic glutamate receptor 5 (Rattus norvegicus)) for the entry COc1ccc(C(=O)/C=C/c2cc3cc(C)ccc3nc2Cl)cc1
Reply text: > 100 µM

Inquiry: Find Ki (Metabotropic glutamate receptor 5 (Rattus norvegicus)) for the entry O=C(C1CC1c1cnc2ccccc2c1)C12CC3CC(CC(C3)C1)C2 (configuration not stated)
Reply text: > 100 µM

Inquiry: Find Ki (Metabotropic glutamate receptor 5 (Rattus norvegicus)) for the entry Cc1ccc2cc(/C=C/C(=O)c3cccs3)c(Cl)nc2c1
Reply text: > 100 µM

Inquiry: Find Ki (Metabotropic glutamate receptor 5 (Rattus norvegicus)) for the entry O=C(/C=C/c1ccc2c(c1)OCCO2)C12CC3CC(CC(C3)C1)C2
Reply text: 6.23 µM

Inquiry: Find Ki (Metabotropic glutamate receptor 5 (Rattus norvegicus)) for the entry COc1ccc(/C=C/C(=O)C23CC4CC(CC(C4)C2)C3)cc1C
Reply text: 5.15 µM

Continue with the next compound.
Inquiry: Find Ki (Metabotropic glutamate receptor 5 (Rattus norvegicus)) for the entry Cc1cccc2cc(/C=C/C(=O)c3ccccc3)c(Cl)nc12
Reply text: > 100 µM

* * *

# test-system: UniProt:Q13255
# Sequence (Q13255 whole entry): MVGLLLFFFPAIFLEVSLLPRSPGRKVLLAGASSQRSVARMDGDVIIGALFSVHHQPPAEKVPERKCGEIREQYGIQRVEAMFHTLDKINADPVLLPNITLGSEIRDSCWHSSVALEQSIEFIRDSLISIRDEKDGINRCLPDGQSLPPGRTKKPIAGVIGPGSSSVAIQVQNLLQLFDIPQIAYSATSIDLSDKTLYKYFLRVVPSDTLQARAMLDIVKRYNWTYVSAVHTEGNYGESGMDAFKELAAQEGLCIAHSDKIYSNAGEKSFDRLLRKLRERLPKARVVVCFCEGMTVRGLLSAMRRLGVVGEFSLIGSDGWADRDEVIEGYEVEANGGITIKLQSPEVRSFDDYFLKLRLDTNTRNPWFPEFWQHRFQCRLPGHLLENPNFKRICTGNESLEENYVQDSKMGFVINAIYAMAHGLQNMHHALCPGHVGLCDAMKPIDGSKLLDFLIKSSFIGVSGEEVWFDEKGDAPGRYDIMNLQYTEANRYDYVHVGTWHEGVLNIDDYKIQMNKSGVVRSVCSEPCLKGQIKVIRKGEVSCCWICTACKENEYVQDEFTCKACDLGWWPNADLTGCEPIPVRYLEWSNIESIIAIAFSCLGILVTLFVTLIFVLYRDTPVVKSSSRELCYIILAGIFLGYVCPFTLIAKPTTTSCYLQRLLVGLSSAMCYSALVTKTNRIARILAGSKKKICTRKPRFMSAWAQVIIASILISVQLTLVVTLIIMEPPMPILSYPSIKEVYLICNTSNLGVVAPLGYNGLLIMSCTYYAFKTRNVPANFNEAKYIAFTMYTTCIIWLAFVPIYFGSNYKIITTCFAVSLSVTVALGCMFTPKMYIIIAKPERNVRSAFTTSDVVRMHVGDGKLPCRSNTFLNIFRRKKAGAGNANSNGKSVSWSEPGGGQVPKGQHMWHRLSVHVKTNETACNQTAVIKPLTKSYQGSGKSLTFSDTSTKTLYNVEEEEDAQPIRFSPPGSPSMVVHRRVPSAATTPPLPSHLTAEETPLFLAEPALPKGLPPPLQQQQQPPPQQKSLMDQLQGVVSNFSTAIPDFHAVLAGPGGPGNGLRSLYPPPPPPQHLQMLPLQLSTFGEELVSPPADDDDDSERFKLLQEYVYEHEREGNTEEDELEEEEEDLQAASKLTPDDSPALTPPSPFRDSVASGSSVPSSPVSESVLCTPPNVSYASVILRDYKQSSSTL
# procedure-summary: Binding affinity to human GluR1 by FLIPR assay
measurement-kind: Ki (nM)
Form entry: value (nM) — number only.

Inquiry: Find Ki (UniProt:Q13255) for the entry O=C(C1CC1c1ccc(N2CCOCC2)nc1)C12CC3CC(CC(C3)C1)C2 (stereo unspecified)
Reply text: 110

* * *

# test-system: UniProt P23385
# procedure-summary: Allosteric antagonist activity at mGluR1 in Sprague-Dawley rat cerebellar granule cells assessed as accumulation of [3H]inositol phosphate by liquid scintillation counting
Catalogue of IC50 values

Inquiry: Item under review: Cc1ccc2nc(Cl)c(/C=C/C(=O)c3cccs3)cc2c1 . Reported IC50?
Reply text: 0.74 µM

***
Inquiry: Item under review: CCn1c2ccccc2c2cc(/C=N/c3ccc(C)c(F)c3)ccc21 . Reported IC50?
Reply text: > 40 µM

Inquiry: Item under review: Cc1ccc2cc(/C=C/C(=O)c3cccs3)c(Cl)nc2c1 . Reported IC50?
Reply text: 2.97 µM

Inquiry: Item under review: CC(CC(=O)c1ccc2c(c1)OCCO2)c1ccccc1 (configuration not stated) . Reported IC50?
Reply text: 10.6 µM
